Sourced from paper PMC9090415

# experimental.target: P. falciparum apicoplast DNA polymerase (Pf-apPOL) (Plasmodium falciparum, UniProt Q8ILY1)
# Sequence (Q8ILY1 entry or part of it): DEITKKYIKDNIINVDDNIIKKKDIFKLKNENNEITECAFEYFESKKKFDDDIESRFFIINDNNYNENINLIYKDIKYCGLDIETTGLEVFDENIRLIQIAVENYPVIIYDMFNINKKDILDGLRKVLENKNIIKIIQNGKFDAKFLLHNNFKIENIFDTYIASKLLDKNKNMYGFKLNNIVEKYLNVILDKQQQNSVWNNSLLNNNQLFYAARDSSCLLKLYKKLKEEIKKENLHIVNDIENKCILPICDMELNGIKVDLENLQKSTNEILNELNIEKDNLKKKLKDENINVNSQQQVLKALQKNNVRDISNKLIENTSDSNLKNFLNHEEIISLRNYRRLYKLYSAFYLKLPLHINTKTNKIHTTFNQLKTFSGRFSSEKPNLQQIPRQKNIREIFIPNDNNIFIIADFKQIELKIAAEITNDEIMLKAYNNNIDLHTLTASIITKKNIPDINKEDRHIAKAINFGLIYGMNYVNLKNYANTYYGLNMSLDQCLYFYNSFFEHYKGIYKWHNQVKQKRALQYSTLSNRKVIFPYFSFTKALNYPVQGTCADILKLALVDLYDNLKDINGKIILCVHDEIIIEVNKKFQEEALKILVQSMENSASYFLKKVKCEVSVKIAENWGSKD
# procedure.details: Fluorescence-based high-throughput DNA polymerase assay (molecular beacon), primary screen and dose-response;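 further: test concentration in µM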
# Type: biochemical
# condition.set: DRC-2; 180'; conc 2.5
quantity.name: % inhibition apPOL 180' (%)

compound="COc1ccccc1C1CC(=O)Oc2cc3c(cc21)OCO3 (centres unmarked) [KU0104502]" quantity_name="% inhibition apPOL 180'" endpoint_value=-2.17
compound="C=CCOc1c(Br)cc(Br)cc1/C=C1\\SC(=N)NC1=O [KU0051640]" quantity_name="% inhibition apPOL 180'" endpoint_value=9
compound="Cc1ccc(N2NC(=O)/C(=C\\c3ccc(O)c([N+](=O)[O-])c3)C2=O)cc1Cl [KU0058427]" quantity_name="% inhibition apPOL 180'" endpoint_value=2.37
compound="Cc1ccc(CNC(=O)c2cnn3c(O)cc(CSc4ccc(Cl)cc4)nc23)cc1 [Molecule 99]" quantity_name="% inhibition apPOL 180'" endpoint_value=25
compound="N#CC(C#N)=C1SCN(c2cccc(Cl)c2)CS1 [Molecule 29, N#CC(=C1SCN(CS1)c1cccc(c1)Cl)C#N]" quantity_name="% inhibition apPOL 180'" endpoint_value=10
compound="O=C(O)c1ccc(COc2cc([N+](=O)[O-])cc3cccnc23)cc1 [KU0058403]" quantity_name="% inhibition apPOL 180'" endpoint_value=1.43
compound="O=C1Nc2ccc(I)cc2C1=Cc1cc(Br)c(O)c(Br)c1 [Molecule 27]" quantity_name="% inhibition apPOL 180'" endpoint_value=0.56
compound="O=C1NN(c2ccc(Cl)c(Cl)c2)C(=O)/C1=C/c1ccc(-c2ccc3c(c2)C(=O)OC3)o1 [Molecule 90]" quantity_name="% inhibition apPOL 180'" endpoint_value=24
compound="CC(C)CCNC(=O)c1cnn2c(O)cc(CSc3ccc(Cl)cc3)nc12 [Molecule 101]" quantity_name="% inhibition apPOL 180'" endpoint_value=-4.21
compound="COC(=O)c1sc(-c2ccc(C(C)(C)C)cc2)cc1NC(=O)CCC(=O)O [Molecule 87]" quantity_name="% inhibition apPOL 180'" endpoint_value=6
compound="O=c1nc(/C=C/c2ccc(Br)cc2)oc2ccccc12 [KU0052629]" quantity_name="% inhibition apPOL 180'" endpoint_value=6

====

# experimental.target: P. falciparum apicoplast DNA polymerase (Pf-apPOL) (Plasmodium falciparum)
# procedure.details: Fluorescence-based high-throughput DNA polymerase assay (molecular beacon), primary screen and dose-response
# Format: biochemical
# condition.set: DRC-1; 180'; conc 40
Outcome: Satisfied for % inhibition apPOL 180' of at least 90%; Not satisfied for anything lower.

compound="C=CCOc1c(Br)cc(Br)cc1/C=C1\\SC(=N)NC1=O [KU0051640]" label_value="Not satisfied"
compound="Cc1ccc(N2NC(=O)/C(=C\\c3ccc(O)c([N+](=O)[O-])c3)C2=O)cc1Cl [KU0058427]" label_value="Not satisfied"
compound="Cc1cc(C)c2c(c1)C1C=CCC1C(c1ccc(C(=O)O)cc1)N2 (centres unmarked) [Molecule 102]" label_value="Not satisfied"
compound="Cc1cccc(C2=N/C(=C\\c3ccc([N+](=O)[O-])o3)C(=O)O2)c1 [KU0058960]" label_value="Not satisfied"
compound="O=C1Nc2ccc(I)cc2C1=Cc1cc(Br)c(O)c(Br)c1 [Molecule 27]" label_value="Not satisfied"
compound="C=CC1=C(C)c2cc3[nH]c(cc4nc(cc5[nH]c(cc1n2)c(C)c5CCC(=O)O)C(CCC(=O)O)=C4C)c(C)c3C=C [Molecule 91]" label_value=Satisfied
